experiment: Induction of hemolysis in horse RBC at 200 uM incubated for 1 hr
Type: toxicity, cell-based, Equus caballus, Erythrocyte
applied_conditions: horse red blood cells (erythrocytes), read-out: Activity
observation_type: hemolysis at 1 h, 200 µM (%)

1. O=C(Nc1cccc(Cl)c1)N[C@H]1CCN(CCC(Oc2cccc(Cl)c2)c2ccccc2)C1 (stereo not given in full) :: 8
2. O=C(NCC1CCN(CCC(Oc2ccc(Cl)cc2)c2ccccc2)CC1)Nc1cccc(Cl)c1 (racemic) :: 6
3. O=C(NCC1CCN(CCC(Oc2ccc(C(F)(F)F)cc2)c2ccccc2)CC1)Nc1cccc(Cl)c1 (racemic) :: 5
4. O=C(NCC1CCN(CCC(Oc2cccc(Cl)c2)c2ccccc2)CC1)Nc1cccc(Cl)c1 (racemic) :: 6
5. O=C(Nc1cccc(Cl)c1)N[C@H]1CCN(CCC(Oc2ccc(Cl)cc2)c2ccccc2)C1 (stereo not given in full) :: 11
6. O=C(Nc1cccc(Cl)c1)N[C@H]1CCN(CCC(Oc2ccc(C(F)(F)F)cc2)c2ccccc2)C1 (stereo not given in full) :: 10
7. O=C(Nc1cccc(Cl)c1)N[C@@H]1CCN(CCC(Oc2ccc(C(F)(F)F)cc2)c2ccccc2)C1 (stereo not given in full) :: 9

----------
Tested on: Enterococcus faecium
experiment: Antibacterial activity against vancomycin-resistant Enterococcus faecium assessed as inhibition of bacterial growth incubated for 18 hrs by broth microdilution method
Assay type: functional
observation_type: MIC (µg/mL)

1) O=C(Nc1cccc(Cl)c1)NC1CCN(CCC(Oc2ccc(Cl)cc2)c2ccccc2)CC1 (racemic) :: 1.56
2) O=C(Nc1cccc(Cl)c1)N[C@H]1CCN(CCC(Oc2ccc(Cl)cc2)c2ccccc2)C1 (some centres not stated) :: 3.12
3) O=C(Nc1ccc(F)cc1)NC1CCN(CCC(Oc2ccc(C(F)(F)F)cc2)c2ccccc2)CC1 (racemic) :: 3.12
4) CC(=O)NC[C@H]1CN(c2ccc(N3CCOCC3)c(F)c2)C(=O)O1 [LINEZOLID] :: 0.78
5) O=C(Nc1cccc(Cl)c1)N[C@H]1CCN(CCC(Oc2cccc(Cl)c2)c2ccccc2)C1 (some centres not stated) :: 0.78
6) CN[C@H](CC(C)C)C(=O)N[C@H]1C(=O)N[C@@H](CC(N)=O)C(=O)N[C@H]2C(=O)N[C@H]3C(=O)N[C@H](C(=O)N[C@H](C(=O)O)c4cc(O)cc(O)c4-c4cc3ccc4O)[C@H](O)c3ccc(c(Cl)c3)Oc3cc2cc(c3O[C@@H]2O[C@H](CO)[C@@H](O)[C@H](O)[C@H]2O[C@H]2C[C@](C)(N)[C@H](O)[C@H](C)O2)Oc2ccc(cc2Cl)[C@H]1O [VANCOMYCIN] :: 50
7) O=C(Nc1cccc(Cl)c1)NC1CCN(CCC(Oc2cccc(F)c2)c2ccccc2)CC1 (racemic) :: 1.56

----------
Test system: Enterococcus faecium
experiment: Antibacterial activity against vancomycin-resistant Enterococcus faecium assessed as inhibition of bacterial growth incubated for 18 hrs by broth microdilution method
Format: functional
observation_type: MIC (µg/mL)

1. O=C(Nc1cccc(Cl)c1)NC1CCN(CCC(Oc2cccc(Cl)c2)c2ccccc2)CC1 (racemic) :: 1.56
2. O=C(Nc1cccc(Cl)c1)NC1CCN(CCC(Oc2cccc(C(F)(F)F)c2)c2ccccc2)CC1 (racemic) :: 1.56
3. O=C(Nc1cccc(F)c1)NC1CCN(CCC(Oc2ccc(C(F)(F)F)cc2)c2ccccc2)CC1 (centres undefined) :: 0.78
4. O=C(Nc1cccc(Cl)c1)NC1CCN(CCC(Oc2ccc(C(F)(F)F)cc2)c2ccccc2)CC1 (centres undefined) :: 1.56
